Protocol text: in vivo
Condition description: female, CD-1, mouse, ip
Experimental readout: MTD (mg/kg)
The response must be a number in mg/kg with no trailing unit.

So what's the measured MTD for this one? CC(=CC=CC=CC=CC=CC(C)C(OC1OC(C(=O)O)C(O)C(O)C1O)C(C)=CC(C)CCCC=CC(C)CC=CCCCN(C)C(=N)N)C(=O)NC1=C(O)CCC1=O (stereo not shown)
70

###

Protocol text: in vitro
Type: cell-based
Condition description: sheep; concentration to achieve 50% hemolysis of SRBC; read-out: In vitro Hemolytic activity (EC50)
Experimental readout: EC50

So what's the measured EC50 for this one? CC(=CC=CC=CC=CC=CC(C)C(OC1OC(C(=O)O)C(O)C(O)C1O)C(C)=CC(C)CCCC=CC(C)CC=CCCCN(C)C(=N)N)C(=O)NC1=C(O)CCC1=O (stereo not shown)
> 128 µg/mL

###

Protocol text: in vitro
Assay type: cell-based
Condition description: sheep
Experimental readout: EC50 (µg/mL)
The response must be a number in µg/mL with no trailing unit.

So what's the measured EC50 for this one? C[C@@H]1[C@H](O)[C@@H](C)/C=C/C=C/C=C/C=C/C=C/C=C/C=C/[C@H](O[C@@H]2O[C@H](C)[C@@H](O)[C@H](N)[C@@H]2O)C[C@@H]2O[C@](O)(C[C@@H](O)C[C@@H](O)[C@H](O)CC[C@@H](O)C[C@@H](O)CC(=O)O[C@H]1C)C[C@H](O)[C@H]2C(=O)O [Amphotericin, reference compound]
3

###

Protocol text: in vivo
Condition description: female, CD-1, mouse, po
Experimental readout: MTD
Please state the number and follow it with the unit.

So what's the measured MTD for this one? CC(=CC=CC=CC=CC=CC(C)C(OC1OC(C(=O)O)C(O)C(O)C1O)C(C)=CC(C)CCCC=CC(C)CC=CCCCN(C)C(=N)N)C(=O)NC1=C(O)CCC1=O (stereo not shown)
250 mg/kg
